experiment: in vitro; settings: human
pIC50: −log10 of the molar value.
recordedEndpoint: pIC50

Quick batch: pIC50 for everything below.
1. C[C@H]1[C@@H](OCc2ccc(C#N)cc2)O[C@@H]2O[C@@]3(C)CC[C@H]4[C@H](C)CC[C@@H]1[C@@]24OO3
2. C[C@H]1[C@@H](OCc2ccc(C(=O)O)cc2Cl)O[C@@H]2O[C@@]3(C)CC[C@H]4[C@H](C)CC[C@@H]1[C@@]24OO3
3. C[C@H]1[C@H](Oc2ccc(CC(=O)O)cc2)O[C@@H]2O[C@@]3(C)CC[C@H]4[C@H](C)CC[C@@H]1[C@@]24OO3
4. COc1cc(CO[C@H]2O[C@@H]3O[C@@]4(C)CC[C@H]5[C@H](C)CC[C@@H]([C@H]2C)[C@@]35OO4)ccc1C(=O)O
5. C[C@H]1[C@H](OCC(=O)N2C[C@H](F)C[C@H]2C(=O)O)O[C@@H]2O[C@@]3(C)CC[C@H]4[C@H](C)CC[C@@H]1[C@@]24OO3
6. C[C@H]1[C@H](Oc2ccc(C(=O)C(=O)O)cc2)O[C@@H]2O[C@@]3(C)CC[C@H]4[C@H](C)CC[C@@H]1[C@@]24OO3

OUT:
1: 6.86; 2: < 4.70; 3: < 4.70; 4: < 4.70; 5: < 4.70; 6: 4.98
